The measured values listed here are drawn from patent US20260242478A1.

Target: T1, PSMA Fab
T1 construct: also called Anti-PSMA Fab; 006 PSMA Fab
Assay: clonal phage ELISA; biotinylated PSMA Fab on neutravidin plate, wells first incubated with PSMA antigen as competitor; anti-M13 HRP detection
Where no end group is shown, it is not given here.
Label scheme for phage binding ELISA signal, Anti-PSMA Fab in the presence of PSMA: lower than 0.08 is 0 (no), 0.08 and above is 1 (yes).

BINDER: VDQVCIPDWMCNGF [Phage-3470]
CAT: 0 (no)
--
BINDER: LERACKPMWMCEGF [Phage-3474]
CAT: 1 (yes)
--
BINDER: EIKHCIPEWMCSGF (cysteine pairing not given here; also: fused to pIII of bacteriophage) [Phage-3464]
CAT: 1 (yes)
--
BINDER: SVPSCVPPWMCIGF [Phage-3471]
CAT: 0 (no)
--
BINDER: LEAACRPMWMCLGF (cysteine pairing not given here; also: fused to pIII of bacteriophage) [Phage-3466]
CAT: 0 (no)
